- ASSAY OVERVIEW: Hepatocyte clearance assay, human
- Type: in vitro ADME
- COND: cryopreserved primary human hepatocytes, average value from two experiments, read-out: Human heps Clint
QUANTITY KIND: hepatocyte CLint at 1 µM (µL/min/1e6 cells)
Entry rule: numbers only, all in µL/min/1e6 cells.

Would you please look over these solved cases?
Cc1n[nH]c2cc(/C=C/C(=O)N[C@H]3c4ccccc4C[C@@H]3OCC3CC3)ccc12 42.1
COc1cc(C)c(NC(=O)/C=C/c2cc3[nH]nc(C#N)c3cc2F)c(C)n1 9

Here is another compound to look at.
Task: What measured hepatocyte CLint at 1 µM goes with CCO[C@H]1Cc2ccccc2[C@@H]1NC(=O)/C=C/c1ccc2c(C)n[nH]c2c1 ?
Result: 17.9
